These data points were gathered from PubChem BioAssay (NCI).

Reported growth values follow for various compounds
- Test system: MDA-MB-435 melanoma
- assay_procedure: NCI-60 one-dose screen, 48 h (100 = growth as untreated, 0 = no growth, -100 = all killed)
- condition_set: 10 µM unless noted
This is part of a sample that, as a whole, favours compounds with a hit. Of some 83,000 tested, about 20% had one in any assay.
test_readout: growth (%)

> print(dat)
                          compound.structure  number
 1  C=C(C)[C@@H]1CC[C@]2(C)[C@H](CC=C3[C@@H]4[C@H](C)[C@@H](C)CC[C@]4(CO)CC[C@]32C)[C@@]1(C)CCCN   -60.3
 2  S=C(Nc1ccc(-c2nc(N3CCOCC3)c3cccn3n2)cc1)Nc1cccnc1    31.8
 3  COC(=O)CNC(=O)[C@H](Cc1ccccc1)NCc1ccncc1     110
 4  O=[N+]([O-])c1ccc(S(=O)(=O)N2CCN(C3=NS(=O)(=O)c4ccccc4N3c3ccccc3)CC2)cc1    97.2
 5  CN1CCN(C(=O)c2ccc(NC(=O)Nc3ccc(-c4nc(N5CCOCC5)c5cccn5n4)cc3)cc2)CC1   0.865
 6  Cc1ccc2c3c(c(=O)[nH]c2c1)C1(C(C#N)=C(N)O3)c2cc(Br)ccc2-c2ccc(Br)cc21    42.8
 7      CCn1c(=S)[nH]c2c(=O)n(C)c(=O)n(C)c21     103
 8  N#CCSc1nnc2n(Cc3ccccc3)c(=O)c3c4c(sc3n12)CCCC4     107
 9        Cc1cc(Cl)ccc1NC(=O)c1cc2ccccc2cc1O    30.1
10  O=C(Nc1ccc(NC(=O)c2cc(=O)[nH]c3ccccc23)cc1)Nc1cccc(C(F)(F)F)c1    77.1
